From: the supplement of paper PMC9170038

# Test system: MS2 coat protein
# protocol: apparent KD of MS2 coat protein; designed switch direction (-1 OFF switch, 1 ON switch): -1; higher = weaker reporter binding
# test.parameters: input ligand: none
Rule: apparent KD of MS2 coat protein under 0.05 µM gives no, otherwise yes.

Q) Evaluate GCCGAAAGUGUGAGGAUAUACCUAUGGAAACAUAGGUAGAAGGCACAUGAGGAUCACCCAUGUGGGAAAACGGC [Mat - Exclusion 4 - Eli Mod - D29] (Eterna round: R97, puzzle: Brourd's mod of Exclusion 4) : apparent KD of MS2 coat protein at minimum 0.05 µM?
A) yes

Q) Hi, just wondering whether UAGAUUCAUUCCUCUAUAAACAUGAGGAUCACCCAUGUAAGUGAGGAUAUAGUAGGAGUUGUAUACUAGAAGGCACUUAGUUUU [JR_ExcNG3_Sub049] (Eterna round: R96, puzzle: Exclusion NG 3) shows apparent KD of MS2 coat protein of 0.05 µM or higher.
A) no

Q) Textbook exercise: given the entry AACUUCUGAGGAUAUACUUAGAUUUACAUGAGGAUCACCCAUGUUCCUCUUUGUAUAAAUGUAGAAGGCAGAAGAA [JL-ex5-4.38 Malcolm mod] (Eterna round: R97, puzzle: Exclusion 5) , state whether its apparent KD of MS2 coat protein is greater than or equal to 0.05 µM.
A) no

* * *

# Tested on: MS2 coat protein
# protocol: apparent KD of MS2 coat protein; designed switch direction (-1 OFF switch, 1 ON switch): -1; higher = weaker reporter binding
# test.parameters: input ligand: FMN 200 uM
Lab note: anything with apparent KD of MS2 coat protein at or over 0.05 µM counts as Criterion met; the rest go in Criterion not met.

Field: example entries. Status: answers known.
biosequence	label.class
ACAUUGCGAGGAUAUACAUGAGGAUCACCCAUGUGGUGGCAGUUACGGUAGGACUAGUGUAGAAGGUGCCAUGG [EX3 #23] (Eterna round: R97, puzzle: Exclusion 3)	Criterion met
GCAGAAUGAGUUAGGAUAUGAUGAUUUUUCGGAAAUCAGAAGGAACUUGAGGAUCACCCAAGUAAAGAUAGGGU [JR_BMEx4_Sub064] (Eterna round: R97, puzzle: Brourd's mod of Exclusion 4)	Criterion met
GGGAAGAACCAACAAGUAGACAUGAGGAUCACCCAUGUAGACUUCAUGUGCACGCAAAGCGUGCAAGCUCGUCUUAU [AK-miRNA-r3-14.4] (Eterna round: R97, puzzle: Sensor, turn-off variant 1)	Criterion not met
GGAAGGUGAGGAUAUACUAAGCCGGAAACGGCAGGUGAGAGACAUGAGGAUCACCCAUGUAGAAGGCACGGAGA [AK-MS2ROC-r4-exclusion2-17] (Eterna round: R97, puzzle: Exclusion 2)	Criterion met
ACAUGAGGAUCACCCAUGUGACCACGAUGGCUGAUGUAAAGACAGGAUAUGUGUGAAUAUCUAUCACAGAAGGGUCUUGACUGG [Deportation 55 - Jieux - Exclusion NG 3] (Eterna round: R96, puzzle: Exclusion NG 3)	Criterion not met
ACAUGUUAUCUAGGAUAUUGGACACAUGAGGAUCACCCAUGUACCCGGAGGCUUUACUAUGAGUUCGAGAAGGAGAUGUACAUG [Ex NG2 #71] (Eterna round: R96, puzzle: Exclusion NG 2)	Criterion met

Q) Could you verify whether the entry AGUUCACAUGAGGAUCACCCAUGUGAGGAUAUGGUUUCGCUGGCCGUAGCCAGUGGAACCAGAAGGCGCGUGAU [Mat - Exclusion 1 - JL Mod - D15] (Eterna round: R97, puzzle: Exclusion 1) shows apparent KD of MS2 coat protein of no less than 0.05 µM?
A) Criterion met

Q) Does apparent KD of MS2 coat protein meet or surpass 0.05 µM for UCCUCGUCAGGAUAUGUCUCGACGCGGUCCGCGUGCGGUCAACAGAAGGGACAUGAGGAUCACCCAUGUGCAGA [Eternabot (Original) Solution 38] (Eterna round: R97, puzzle: Exclusion 4) ?
A) Criterion met

Q) Quick check, apparent KD of MS2 coat protein >= 0.05 µM? GCAGCACAUGUAGGAUAUCUGCACGAUUAGUGCAGAGAAGGACAUGAGGAUCACCCAUGUAAUUAAGAUCAAUUAUUAAGCUGC [ENG1/3-C1] (Eterna round: R96, puzzle: Exclusion NG 1)
A) Criterion met
